Values compiled from ChEMBL document CHEMBL3885881.

Species on record: Rattus norvegicus
TEST NAME: DrugMatrix - Regimen: Daily Repeat
Assay type: toxicity, organism-based, Sprague-Dawley
Parameters: regimen Daily Repeat, gender Male, age 6-8 weeks
COND: in vivo, po, 0 mg/kg, 120 h, tissue Blood, route oral GAVAGE, dose level Control, time 5 day, vehicle .5 % CMC
Please mark criterion met if the recorded EOSINOPHIL is equal to or greater than 0.2%, and criterion not met if it falls below.

Examples from the recorded data:
ClC(Br)Br [DIBROMOCHLOROMETHANE]: criterion not met
CCn1cc(C(=O)O)c(=O)c2cc(F)c(N3CCNCC3)cc21 [NORFLOXACIN]: criterion not met
OCCN(CCO)c1nc(N2CCCCC2)c2nc(N(CCO)CCO)nc(N3CCCCC3)c2n1 [DIPYRIDAMOLE]: criterion not met
C1CCC(C(CC2CCCCN2)C2CCCCC2)CC1 (centres undefined) [PERHEXILINE]: criterion met
O=C(CCCN1CC=C(n2c(=O)[nH]c3ccccc32)CC1)c1ccc(F)cc1 [DROPERIDOL]: criterion met

Prompt: Please indicate if the recorded EOSINOPHIL for CN1CCN(CCCN2c3ccccc3Sc3ccc(Cl)cc32)CC1 [PROCHLORPERAZINE] meets or exceeds 0.2%.
Response: criterion not met

Prompt: Is the recorded value of EOSINOPHIL equal to or greater than 0.2% for this molecule? COc1nc(C)nc(Cl)c1N=C1NCCN1 [MOXONIDINE]
Response: criterion not met

Prompt: Entry CC(C)(C)NC(=O)[C@@H]1C[C@@H]2CCCC[C@@H]2CN1C[C@@H](O)[C@H](Cc1ccccc1)NC(=O)[C@H](CC(N)=O)NC(=O)c1ccc2ccccc2n1 : is its EOSINOPHIL no less than 0.2%?
Response: criterion met

Prompt: Is reported EOSINOPHIL greater than or equal to 0.2% here: NC1=NC(=O)C(c2ccccc2)O1 (centres undefined) [PEMOLINE]
Response: criterion not met

* * *

Species: Rattus norvegicus
TEST NAME: DrugMatrix - Regimen: Daily Repeat
Type: toxicity, organism-based, Sprague-Dawley
Parameters: regimen Daily Repeat, gender Male, age 6-8 weeks
COND: in vivo, po, 0 mg/kg, […], tissue Blood, route oral GAVAGE, dose level Control, time 14 day, vehicle .5 % CMC
Overview of reported HEMATOCRIT across a group of compounds:
Number only, in %; omit the unit.

See these solved cases before continuing.
ClC(Br)Br: 36.87
ClC(Cl)Br: 36.87
CCOP(=S)(OCC)Oc1nc(Cl)c(Cl)cc1Cl: 44.43

Prompt: Could you share which HEMATOCRIT value was measured for COc1ccc(C(=O)Nc2c(Cl)c[n+]([O-])cc2Cl)c2ccc(C(F)(F)F)nc12 ?
Response: 48.3

* * *

Species on record: Rattus norvegicus
TEST NAME: DrugMatrix - Regimen: Daily Repeat
Type: toxicity, organism-based, Sprague-Dawley
Set-up: regimen Daily Repeat, gender Male, age 6-8 weeks
COND: in vivo, po, 0 mg/kg, 72 h, tissue Plasma, route oral GAVAGE, dose level Control, time 3 day, vehicle 100 % WATER
PROPERTY LABEL: CHLORIDE (MEQ/L)
Field: numeric (MEQ/L). Do not append units.

Cn1cc[nH]c1=S [METHIMAZOLE]: 99.67
N[C@@H](Cc1ccc(O)c(O)c1)C(=O)O [LEVODOPA]: 103.83
C[C@H]1c2cccc(O)c2C(=O)C2=C(O)[C@]3(O)C(=O)C(C(N)=O)=C(O)[C@@H](N(C)C)[C@@H]3[C@@H](O)[C@@H]21.O [DOXYCYCLINE]: 103.83

Let us move to another entry and its CHLORIDE.
Prompt: Could you share which CHLORIDE value was measured for Nc1c2c(nc3ccccc13)CCCC2 [TACRINE] ?
Response: 101.67

* * *

Listing: CHLORIDE of selected compounds
Organism: Rattus norvegicus
TEST NAME: DrugMatrix - Regimen: Daily Repeat
Format: toxicity, organism-based, Sprague-Dawley
Set-up: regimen Daily Repeat, gender Male, age 6-8 weeks
COND: in vivo, iv, 0 mg/kg, 120 h, tissue Plasma, dose level Control, time 5 day, vehicle 100 % SALINE
Starred links: 1 amine or outer side, 2 acyl side, 3 side chain; linkers in the order of their positions; H or OH if unused. Positions of bridges follow the written chain, without caps; N, C: chain ends. Non-standard residues stand in square brackets, D forms with d. Residues, ends and D or L forms follow the SMILES beside them. Chains are numbered I, II in the order given. Actinocin(9to1) = Cc1c2oc3c(C)ccc(C(=O)[*:1])c3nc-2c(C(=O)[*:2])c(N)c1=O; NMeV = CN[C@H](C(=O)O)C(C)C; Sar = CNCC(=O)O
// note: answer is a bare numeric in MEQ/L

Recorded CHLORIDE, per entry:
CC[C@]1(O)C[C@H]2CN(CCc3c([nH]c4ccccc34)[C@@](C(=O)OC)(c3cc4c(cc3OC)N(C=O)[C@H]3[C@@](O)(C(=O)OC)[C@H](OC(C)=O)[C@]5(CC)C=CCN6CC[C@]43[C@@H]65)C2)C1: 99.6
Cc1ccc(N(CC2=NCCN2)c2cccc(O)c2)cc1: 103.33
Cc1c2oc3c(C)ccc(C(=O)N[C@@H]4C(=O)N[C@H](C(C)C)C(=O)N5CCC[C@H]5C(=O)N(C)CC(=O)N(C)[C@@H](C(C)C)C(=O)O[C@@H]4C)c3nc-2c(C(=O)N[C@@H]2C(=O)N[C@H](C(C)C)C(=O)N3CCC[C@H]3C(=O)N(C)CC(=O)N(C)[C@@H](C(C)C)C(=O)O[C@@H]2C)c(N)c1=O [DACTINOMYCIN] (I: T[dV]P[Sar][NMeV] / II: T[dV]P[Sar][NMeV]; ester I:1-I:C, II:1-II:C; linker I:N-II:N via Actinocin(9to1)): 101

Prompt: Param item = COc1cc2c3cc1Oc1cc(ccc1O)C[C@@H]1c4c(cc(OC)c(O)c4Oc4ccc(cc4)C[C@@H]3N(C)CC2)CC[N+]1(C)C.[Cl-] ; retrieve measured CHLORIDE.
Response: 101.67

* * *

Species: Rattus norvegicus
TEST NAME: DrugMatrix - Regimen: Daily Repeat
Assay type: toxicity, organism-based, Sprague-Dawley
Design: regimen Daily Repeat, gender Male, age 6-8 weeks
COND: in vivo, iv, 0 mg/kg, 72 h, tissue Plasma, dose level Control, time 3 day, vehicle 100 % SALINE
Starred links: 1 amine or outer side, 2 acyl side, 3 side chain; linkers in the order of their positions; H or OH if unused. Positions of bridges follow the written chain, without caps; N, C: chain ends. Non-standard residues stand in square brackets, D forms with d. Residues, ends and D or L forms follow the SMILES beside them. Chains are numbered I, II in the order given. Actinocin(9to1) = Cc1c2oc3c(C)ccc(C(=O)[*:1])c3nc-2c(C(=O)[*:2])c(N)c1=O; NMeV = CN[C@H](C(=O)O)C(C)C; Sar = CNCC(=O)O
Known CHLORIDE of a selection of molecules
Just the number please, in MEQ/L, no unit attached.

Please review the entries below; each comes with its answer.
COc1cc2c3cc1Oc1cc(ccc1O)C[C@@H]1c4c(cc(OC)c(O)c4Oc4ccc(cc4)C[C@@H]3N(C)CC2)CC[N+]1(C)C.[Cl-]: 101.33
Cc1ccc(N(CC2=NCCN2)c2cccc(O)c2)cc1 [PHENTOLAMINE]: 102
CC[C@]1(O)C[C@H]2CN(CCc3c([nH]c4ccccc34)[C@@](C(=O)OC)(c3cc4c(cc3OC)N(C=O)[C@H]3[C@@](O)(C(=O)OC)[C@H](OC(C)=O)[C@]5(CC)C=CCN6CC[C@]43[C@@H]65)C2)C1 [VINCRISTINE]: 100

Now consider the entry below.
Prompt: Quick one: CHLORIDE for Cc1c2oc3c(C)ccc(C(=O)N[C@@H]4C(=O)N[C@H](C(C)C)C(=O)N5CCC[C@H]5C(=O)N(C)CC(=O)N(C)[C@@H](C(C)C)C(=O)O[C@@H]4C)c3nc-2c(C(=O)N[C@@H]2C(=O)N[C@H](C(C)C)C(=O)N3CCC[C@H]3C(=O)N(C)CC(=O)N(C)[C@@H](C(C)C)C(=O)O[C@@H]2C)c(N)c1=O [DACTINOMYCIN] (I: T[dV]P[Sar][NMeV] / II: T[dV]P[Sar][NMeV]; ester I:1-I:C, II:1-II:C; linker I:N-II:N via Actinocin(9to1)) ?
Response: 101.17

* * *

Entries and their measured CHOLESTEROL follow.
Species on record: Rattus norvegicus
TEST NAME: DrugMatrix - Regimen: Daily Repeat
Assay type: toxicity, organism-based, Sprague-Dawley
Set-up: regimen Daily Repeat, gender Male, age 6-8 weeks
COND: in vivo, po, 0 mg/kg, […], tissue Plasma, route oral GAVAGE, dose level Control, time 14 day, vehicle .5 % CMC
Numbers only; they are read as mg/dL.

ClC(Br)Br [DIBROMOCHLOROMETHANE]: 70.83
COc1ccc(C(=O)Nc2c(Cl)c[n+]([O-])cc2Cl)c2ccc(C(F)(F)F)nc12 [SCH-351591]: 72
ClC(Cl)Br [BROMODICHLOROMETHANE]: 70.83

Turning now to a further record.
Prompt: Which value of CHOLESTEROL has been reported for CCOP(=S)(OCC)Oc1nc(Cl)c(Cl)cc1Cl [CHLORPYRIFOS] in the records?
Response: 68.67
